Test system: SK-MEL-5
protocol_description: NCI tumour cell line growth inhibition, 48 h
Activity calls are given as the source filed them. Rule as the data show it: active = GI50 up to about 1.1 µM and inactive = higher.
# output must be one of active, inactive

Consider the following illustrative entries.
CCOC(=O)c1ccc(NCc2ccc3oc(=O)c(-c4ccccc4)nc3c2)cc1	inactive
COP(=O)(OC)/C(=N\Nc1ccc([N+](=O)[O-])cc1)NCc1ccccc1	inactive
OCCCc1cc(O)c2c(c1)C(CO)C(c1ccc(O)c(O)c1)O2 (stereo not given)	inactive

Qu. Which result was noted for this compound in the test: CCC12CCCN(Cc3ccccc3)C1c1c(n(C)c3ccccc13)C(C(=O)OC)C2 (stereo not given)
Ans. inactive

Qu. Which result was noted for this compound in the test: Cc1ccc(C2SC(=N)Nc3c2c(C)nn3C(=O)c2ccncc2)cc1 (stereo not given)
Ans. inactive

Qu. Which result was noted for this compound in the test: `COc1cccc([C@@]2(O)c3c(ccc(O)c3OC)[C@H]2OC)c1OC`
Ans. inactive

Qu. Which result was noted for this compound in the test: CCOC(=O)CCC(NC(=O)c1ccc(Nc2nc3cc(C(F)(F)F)ccc3nc2C(=O)OCC)cc1)C(=O)OCC (stereo not given)
Ans. inactive

Qu. Which result was noted for this compound in the test: CC(=O)OCC12C(OC(C)=O)C[C@@H](C)C3(CC(c4ccoc4)OC3=O)C1CCC(O)C21CO1 (stereo not given in full)
Ans. inactive

Qu. Which result was noted for this compound in the test: `O=C(Nc1cccc(C(F)(F)F)c1)O/N=C(/Cl)CCl`
Ans. inactive

Qu. Which result was noted for this compound in the test: `CC1(C)CCC[C@]2(C)[C@@H](C=O)C(C=O)=CC[C@@H]12`
Ans. inactive

These measurements were taken from ChEMBL document CHEMBL1201862.
